Where do the numbers come from? From patent US8048889B2.

Overview of recorded Toxicity % Inhibition at 50 uM (2 doses) for various compounds
Test system: Huh-Luc-Neo cells
Assay: CellTiter-Glo Cell Viability Assay
Type: cell-based, human
Details: inhibition of cell viability at 50 uM, 2 doses, conditions as in Replicon RNA Assay

{"columns": ["smiles text", "result unit", "Toxicity % Inhibition at 50 uM (2 doses)"],
 "data": [
  ["Cc1ccc(COc2c(Cc3ccc(C)cc3)c(=O)oc3ccccc23)cc1", "%", 13.4],
  ["COc1ccc2c(OCc3ccc(F)cc3F)c(Cc3ccc(F)cc3F)c(=O)oc2c1", "%", 7.0],
  ["O=c1oc2ccccc2c(OCc2cccc(C(F)(F)F)c2)c1Cc1cccc(C(F)(F)F)c1", "%", 4.3],
  ["COc1ccc(-c2c(OCc3cccc(C(F)(F)F)c3)c3ccccc3oc2=O)cc1", "%", 40.8],
  ["COc1ccc(/N=C/c2c(Nc3ccc(OC)cc3)c3ccccc3oc2=O)cc1", "%", 10.7],
  ["O=c1oc2ccccc2c(OCc2ccc(C(F)(F)F)cc2)c1Cc1ccc(C(F)(F)F)cc1", "%", 10.0],
  ["COc1ccc2c(OCc3ccc(C(F)(F)F)cc3)c(Cc3ccc(C(F)(F)F)cc3)c(=O)oc2c1", "%", 2.6],
  ["COc1ccc(Nc2c(/C=N/c3ccc(Cl)cc3)c(=O)oc3ccccc23)cc1", "%", 15.2]
]}

====

Overview of recorded Toxicity % Inhibition at 50 uM (2 doses) for various molecules
Tested on: Huh-Luc-Neo cells
Experiment: CellTiter-Glo Cell Viability Assay
Assay type: cell-based, human
Settings: inhibition of cell viability at 50 uM, 2 doses, conditions as in Replicon RNA Assay
metric name: Toxicity % Inhibition at 50 uM (2 doses) (%)

{"columns": ["molecule", "metric name", "result"],
 "data": [
  ["COc1ccc2c(OCc3ccc(F)c(F)c3)c(Cc3ccc(F)c(F)c3)c(=O)oc2c1 [VQ_31748]", "Toxicity % Inhibition at 50 uM (2 doses)", 4.9],
  ["COc1ccc2c(OCc3ccc(C)cc3)c(Cc3ccc(C)cc3)c(=O)oc2c1 [VQ_31763]", "Toxicity % Inhibition at 50 uM (2 doses)", 6.5],
  ["Cc1cc2oc(=O)c(Cc3ccc(F)cc3F)c(OCc3ccc(F)cc3F)c2cc1C [VQ_32806]", "Toxicity % Inhibition at 50 uM (2 doses)", 8.3],
  ["O=c1[nH]c2ccccc2c(OCc2ccc(F)cc2)c1Cc1ccc(F)cc1 [VQ_35018]", "Toxicity % Inhibition at 50 uM (2 doses)", 12.3],
  ["Cc1cccc(COc2c(Cc3cccc(C)c3)c(=O)[nH]c3ccccc23)c1 [VQ_35027]", "Toxicity % Inhibition at 50 uM (2 doses)", 12.5]
]}

====

System: Huh-Luc-Neo cells
Experiment: CellTiter-Glo Cell Viability Assay
Type: cell-based, human
Conditions: inhibition of cell viability at 50 uM, 2 doses, conditions as in Replicon RNA Assay
metric name: Toxicity % Inhibition at 50 uM (2 doses)

{"columns": ["smiles text", "study target", "result"],
 "data": [
  ["COc1ccc(Nc2c(/C=N/c3ncccn3)c(=O)oc3ccccc23)cc1", "Huh-Luc-Neo cells", "−2.7%"],
  ["CCCCCC/N=C/c1c(Nc2ccc(OC)cc2)c2ccccc2oc1=O", "Huh-Luc-Neo cells", "16.3%"],
  ["COc1ccc(Nc2c(/C=N/c3nc4ccccc4s3)c(=O)oc3ccccc23)cc1", "Huh-Luc-Neo cells", "3.3%"],
  ["Cn1c(=O)c(Cc2ccc(Cl)c(Cl)c2)c(OCc2ccc(Cl)c(Cl)c2)c2ccccc21", "Huh-Luc-Neo cells", "12.2%"],
  ["COc1ccc(Nc2c(/C=N/c3ccc(C)cc3)c(=O)oc3ccccc23)cc1", "Huh-Luc-Neo cells", "6.5%"],
  ["Cc1ccc(Nc2c(CNc3ncccn3)c(=O)oc3ccccc23)cc1", "Huh-Luc-Neo cells", "37.9%"],
  ["COc1ccc2c(OCc3cccc(C)c3)c(Cc3cccc(C)c3)c(=O)oc2c1", "Huh-Luc-Neo cells", "5.1%"],
  ["COc1ccc2c(OCc3cccc(Cl)c3)c(Cc3cccc(Cl)c3)c(=O)oc2c1", "Huh-Luc-Neo cells", "0.7%"],
  ["COc1ccc2c(OCc3cccc(C(F)(F)F)c3)c(Cc3cccc(C(F)(F)F)c3)c(=O)oc2c1", "Huh-Luc-Neo cells", "1.9%"]
]}

====

Overview of recorded Toxicity % Inhibition at 50 uM (2 doses) for various compounds
Test system: Huh-Luc-Neo cells
Assay: CellTiter-Glo Cell Viability Assay
Format: cell-based, human
Details: inhibition of cell viability at 50 uM, 2 doses, conditions as in Replicon RNA Assay

{"columns": ["smiles text", "Toxicity % Inhibition at 50 uM (2 doses), %"],
 "data": [
  ["Cc1ccc(COc2c(Cc3ccc(C)cc3)c(=O)n(C)c3ccccc23)cc1", 20.7],
  ["COc1ccc2c(OCc3ccccc3C)c(Cc3ccccc3C)c(=O)oc2c1", 6.1],
  ["Cc1ccc(COc2c(Cc3ccc(C)cc3)c(=O)n(Cc3ccc(C)cc3)c3ccccc23)cc1", 17.2],
  ["COc1ccc(Nc2c(/C=N/c3cc(Cl)cc(Cl)c3)c(=O)oc3ccccc23)cc1", 13.7],
  ["COc1ccc(Nc2c(/C=N/C3CCCCC3)c(=O)oc3ccccc23)cc1", 13.9],
  ["COC(=O)CNCc1c(Nc2ccc(C)cc2)c2ccccc2oc1=O", 31.2]
]}

====

System: Huh-Luc-Neo cells
Assay: CellTiter-Glo Cell Viability Assay
Format: cell-based, human
Details: inhibition of cell viability at 100 um, 1 dose, conditions as in Replicon Luciferase Assay (48 h)
Overview of recorded Toxicity % Inhibition at 100 um (1 dose) for various compounds

{"columns": ["smiles text", "result unit", "Toxicity % Inhibition at 100 um (1 dose)"],
 "data": [
  ["COc1ccc(Nc2c(/C=N/c3cc(Cl)cc(Cl)c3)c(=O)oc3ccccc23)cc1", "%", 9.1],
  ["COc1ccc2c(OCc3cccc(Cl)c3)c(Cc3cccc(Cl)c3)c(=O)oc2c1", "%", 4.3],
  ["COc1ccc(Nc2c(/C=N/C3CCCCC3)c(=O)oc3ccccc23)cc1", "%", 22.8],
  ["COc1ccc2c(OCc3cccc(C)c3)c(Cc3cccc(C)c3)c(=O)oc2c1", "%", 3.0],
  ["COc1ccc2c(OCc3cccc(C(F)(F)F)c3)c(Cc3cccc(C(F)(F)F)c3)c(=O)oc2c1", "%", 2.5],
  ["Cc1ccc(COc2c(Cc3ccc(C)cc3)c(=O)n(Cc3ccc(C)cc3)c3ccccc23)cc1", "%", 21.5],
  ["COc1ccc(Nc2c(/C=N/c3ccc(C)cc3)c(=O)oc3ccccc23)cc1", "%", 5.9],
  ["Cc1ccc(COc2c(Cc3ccc(C)cc3)c(=O)oc3ccccc23)cc1", "%", 53.4],
  ["CCCCCC/N=C/c1c(Nc2ccc(OC)cc2)c2ccccc2oc1=O", "%", 40.7],
  ["COc1ccc(Nc2c(/C=N/c3nc4ccccc4s3)c(=O)oc3ccccc23)cc1", "%", 14.7],
  ["COc1ccc2c(OCc3ccc(F)c(F)c3)c(Cc3ccc(F)c(F)c3)c(=O)oc2c1", "%", 10.0],
  ["COc1ccc2c(OCc3ccc(C(F)(F)F)cc3)c(Cc3ccc(C(F)(F)F)cc3)c(=O)oc2c1", "%", 14.7],
  ["Cc1cccc(COc2c(Cc3cccc(C)c3)c(=O)[nH]c3ccccc23)c1", "%", 4.6],
  ["COc1ccc(-c2c(OCc3cccc(C(F)(F)F)c3)c3ccccc3oc2=O)cc1", "%", 5.0],
  ["O=c1[nH]c2ccccc2c(OCc2ccc(F)cc2)c1Cc1ccc(F)cc1", "%", 10.0],
  ["COC(=O)CNCc1c(Nc2ccc(C)cc2)c2ccccc2oc1=O", "%", 14.6],
  ["O=c1oc2ccccc2c(OCc2cccc(C(F)(F)F)c2)c1Cc1cccc(C(F)(F)F)c1", "%", 4.6],
  ["Cc1ccc(Nc2c(CNc3ncccn3)c(=O)oc3ccccc23)cc1", "%", 21.1],
  ["Cc1ccc(COc2c(Cc3ccc(C)cc3)c(=O)n(C)c3ccccc23)cc1", "%", 34.6],
  ["COc1ccc(Nc2c(/C=N/c3ncccn3)c(=O)oc3ccccc23)cc1", "%", 12.5],
  ["COc1ccc(Nc2c(/C=N/c3ccc(Cl)cc3)c(=O)oc3ccccc23)cc1", "%", 9.8],
  ["Cc1cc2oc(=O)c(Cc3ccc(F)cc3F)c(OCc3ccc(F)cc3F)c2cc1C", "%", 16.5],
  ["COc1ccc2c(OCc3ccc(C)cc3)c(Cc3ccc(C)cc3)c(=O)oc2c1", "%", 4.6],
  ["O=c1oc2ccccc2c(OCc2ccc(C(F)(F)F)cc2)c1Cc1ccc(C(F)(F)F)cc1", "%", 16.6],
  ["COc1ccc2c(OCc3ccccc3C)c(Cc3ccccc3C)c(=O)oc2c1", "%", 23.6],
  ["COc1ccc(/N=C/c2c(Nc3ccc(OC)cc3)c3ccccc3oc2=O)cc1", "%", 4.3],
  ["COc1ccc2c(OCc3ccc(F)cc3F)c(Cc3ccc(F)cc3F)c(=O)oc2c1", "%", 10.9],
  ["Cn1c(=O)c(Cc2ccc(Cl)c(Cl)c2)c(OCc2ccc(Cl)c(Cl)c2)c2ccccc21", "%", 24.6]
]}
